- System: OVCAR-4
- PROTOCOL: NCI tumour cell line growth inhibition, 48 h
Active and inactive are the calls of the source. Cut-off read from the data, not from the text of the source: active = GI50 up to about 1.1 µM and inactive = higher.
REPORTED_ENDPOINT: GI50

Recorded results for 3 molecules are shown here.
>>> measured("O=C(c1cccs1)N1CCN(C(=O)c2cccs2)C1=S")
"16.9 µM (inactive)"
>>> measured("CCCNC1=C2CC(C)CC(OC)[C@@H](O)[C@H](C)/C=C(\\C)C(OC(N)=O)C(OC)/C=C\\C=C(/C)C(=O)NC(=CC1=O)C2=O (stereo not given in full)")
"26.6 µM (inactive)"
>>> measured("COC(=O)c1sc2c(=O)c(C(=O)OC)c(C(=O)OC)sc2c(=O)c1C(=O)OC")
"> 100 µM (inactive)"

Please give the documented GI50 of O=C1NNC(=O)c2ccccc2SSc2ccccc2C(=O)NNC(=O)c2ccccc2SSc2ccccc21 33.7 µM (inactive)

# return recorded GI50 for entry CCC(O)CCCCCCCCCCCCCCC(=O)O (stereo not given) > 100 µM (inactive)
